molecular target: T1, SARS-CoV-2 RBD-mFc (SARS-CoV-2, UniProt P0DTC2 319-541); assay: Octet QKe BLI, 1:1 global fit
T1 construct: range 319-541
reported_endpoint: Kd (nM)
One number for each entry, in nM.

Would you mind telling me what Kd value was observed for SA4079 (antibody, V domains shown) VH: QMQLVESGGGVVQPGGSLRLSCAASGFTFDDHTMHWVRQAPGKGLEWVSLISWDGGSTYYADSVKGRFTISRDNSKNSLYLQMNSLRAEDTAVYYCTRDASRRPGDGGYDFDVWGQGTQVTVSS VL: QAVVTQEPSLTVSPGGTATLTCGSSTGTVTRGHWPYWFQQKPGQAPRTLIYDTDTKHSWTPARFSGSLLGGKAALTLSGAQPEDEADYYCLLSYSDSRVFGTGTKVTVL ? 0.154

Reported Kd, binder SA4118 (antibody, V domains shown) VH: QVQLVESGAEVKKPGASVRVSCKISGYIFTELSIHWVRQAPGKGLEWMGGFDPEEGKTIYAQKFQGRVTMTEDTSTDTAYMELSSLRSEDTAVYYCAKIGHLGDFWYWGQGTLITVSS VL: QSALTQPASVSGSPGQSITISCTGTTSDIGSYDYVSWYQQHPGKAPKLIIYGVTRRPSGVSNRFSGSKSGNTASLTISGLQAEDEANYYCSSCTRSSTYVFGTGTKVTVL : ____ 0.0296

Further cases:
Given the entry SA4114 (antibody, V domains shown) VH: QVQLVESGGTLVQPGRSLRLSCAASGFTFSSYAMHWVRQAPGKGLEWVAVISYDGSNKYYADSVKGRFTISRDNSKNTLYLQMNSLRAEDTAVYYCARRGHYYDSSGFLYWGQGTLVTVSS VL: DIQMTQSPSSLSASVGDRVTITCRAGQSIDNYLNWYQQKPGKAPKLLIYAASTLHSGVPSRFSGSGSGTDFTLTISSLQPDDFATYYCQQSYSIPRTFGQGTKLEIK , report its measured Kd. 0.0899
